# ASSAY_OVERVIEW: folding stability dG unfold from trypsin proteolysis; higher = more stable
Field: folding stability dG unfold. Provide a value for each of the sequences that follow.
For clarity, give the value followed by its unit.

Provide only the value of recorded folding stability dG unfold for SAGGSAGGEYELLTFTLEFEVPPEVEHVEFEAELEDFDEILEVRARPDPETGTVRVEIVARARPSAGGSAGG [r6_712_TrMRF] 1.46 kcal/mol

Provide only the value of recorded folding stability dG unfold for SAGSSISSISRSPVSTEEDPSTNVRRTTYLEKYPGPPNLLKEVTVTTTFAPDGTPTVTPAVTTLSPALLSAG [r5_48_JUSTAS] -0.817 kcal/mol

Provide only the value of recorded folding stability dG unfold for SAGTIRGLPAEFAKRIANELAQNGYEIVAVTVTYDPPNGTFKIEVEMRPPNGKVREHDIEIQVRLPPDDSAG [r5_985_TrROS] 1.72 kcal/mol

Provide only the value of recorded folding stability dG unfold for SAGGDITITKNPENDYYTITLPLPNSNSTAVAFLDPKTGTAVVINPDNPLVLVLEPNGTLKEVKLLPPSAGG [r13_101_TrMRF] 1.04 kcal/mol

Provide only the value of recorded folding stability dG unfold for SAGGKVKVKLSPEMIEALKKAGIKEGQKEVTIEVKLKDGSVYRVTITYDKKTNKITIKVEKVEKLPPSAGGS [r16_497_TrROS_Hall] 2.58 kcal/mol

Provide only the value of recorded folding stability dG unfold for SAGGSAMPKFYLDENGNPVYELPEEPTINTPLKIGIFDEENNPAIEIEIPGSTPLEEIIQKIKDAASAGGSA [r15_309_TrMRF] 0.674 kcal/mol

Provide only the value of recorded folding stability dG unfold for SAGGKTVVIELDGARIEFNEDDGTITVWMPREELEALKAALPPGAEIVEVRERPDGWVQVTIRITPPSAGGS [r8_415_TrROS_Hall] 3.1 kcal/mol

Origin of the recorded values: the supplement of paper PMC12764529
